- system: PLK4 (h) (Homo sapiens, UniProt O00444)
- Sequence (O00444 whole entry): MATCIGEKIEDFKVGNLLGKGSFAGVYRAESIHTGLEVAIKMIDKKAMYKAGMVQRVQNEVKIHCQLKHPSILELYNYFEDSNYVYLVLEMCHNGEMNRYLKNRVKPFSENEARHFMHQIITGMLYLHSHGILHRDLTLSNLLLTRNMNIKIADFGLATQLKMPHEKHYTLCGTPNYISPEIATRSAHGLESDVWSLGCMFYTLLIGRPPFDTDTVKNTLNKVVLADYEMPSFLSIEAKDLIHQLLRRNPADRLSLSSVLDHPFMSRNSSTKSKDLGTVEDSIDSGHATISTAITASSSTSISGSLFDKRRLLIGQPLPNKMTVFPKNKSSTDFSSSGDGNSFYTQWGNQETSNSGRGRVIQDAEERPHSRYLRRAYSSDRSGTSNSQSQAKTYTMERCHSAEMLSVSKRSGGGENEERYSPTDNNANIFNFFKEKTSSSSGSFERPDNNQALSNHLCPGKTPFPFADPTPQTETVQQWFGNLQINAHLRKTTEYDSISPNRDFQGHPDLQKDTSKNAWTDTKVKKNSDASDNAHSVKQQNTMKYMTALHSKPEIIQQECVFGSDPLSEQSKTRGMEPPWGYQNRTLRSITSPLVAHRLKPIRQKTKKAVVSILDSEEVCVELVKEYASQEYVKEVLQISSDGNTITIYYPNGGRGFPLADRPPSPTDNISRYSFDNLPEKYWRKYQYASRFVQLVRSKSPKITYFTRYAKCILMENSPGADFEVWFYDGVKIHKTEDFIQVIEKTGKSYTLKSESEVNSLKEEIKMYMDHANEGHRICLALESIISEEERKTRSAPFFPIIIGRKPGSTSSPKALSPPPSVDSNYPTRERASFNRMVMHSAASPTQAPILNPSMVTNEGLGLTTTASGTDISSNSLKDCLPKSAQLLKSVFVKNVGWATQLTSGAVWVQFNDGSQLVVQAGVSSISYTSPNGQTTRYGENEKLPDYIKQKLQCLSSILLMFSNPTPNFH
- run_description: PLK-4 human kinase assay (SPA)
- Format: biochemical
- particulars: read-out: PLK4 pIC50 (converted)
metric: IC50 (nM)

CN1CCCNc2ncnc3c2/C(=C/Nc2cccc(c2)OCCN(C)[C@H](CO)C1=O)C(=O)N3 | 1950

I. CN1CCCNc2ncnc3c2/C(=C/Nc2ccc(NC(=O)NC4CCCCC4)c(c2)OCCCC1=O)C(=O)N3
II. CN1CCCNc2ncnc3c2/C(=C/Nc2ccc(Cl)c(c2)OCCCCCC1=O)C(=O)N3
III. CN1CCCC(=O)N2CCN(CC2)c2ncnc3c2C(=CNc2cccc(c2)C1)C(=O)N3 (mixture of isomers)
IV. COc1ccc2cc1OCCCCCC(=O)N(C)CCCNc1ncnc3c1/C(=C/N2)C(=O)N3
Query string: Order the records by IC50, with each subsequent value no larger than the one before. Returns: the labels listed in the requested order.
Result string: III, II, I, IV

###

- system: GSK3β (h) (Homo sapiens)
- run_description: GSK-3β human kinase assay (SPA)
- Assay type: biochemical
- particulars: read-out: GSK3B pIC50 (converted)
metric: IC50 (nM)

Worked examples follow.
COc1ccc2cc1OCCCN(C)[C@H](CO)C(=O)N1CCN(CC1)c1ncnc3c1/C(=C/N2)C(=O)N3 | 1350
CN1CCC(=O)NCC#Cc2cccc3c2/C(=C/Nc2cccc(c2)S(=O)(=O)N(C)CC1=O)C(=O)N3 | 4680
CN1CC(=O)N2CCN(CC2)c2cccc3c2/C(=C/Nc2cccc(c2)S1(=O)=O)C(=O)N3 | 1170
CN1CCCOc2cc(ccc2Cl)N/C=C2\C(=O)Nc3ncnc(c32)N2CCN(CC2)C(=O)[C@H]1CO | 2240

A. O=C1COc2cccc(c2)N/C=C2\C(=O)Nc3ncnc(c32)N2CCN(CC2)C[C@@H](Cc2ccccc2)N1
B. CN1CCNc2ncnc3c2/C(=C/Nc2cccc(c2)OCCCCCCC1=O)C(=O)N3
C. COc1ccc2cc1OCCCC(=O)NCCN(C)c1ncnc3c1/C(=C/N2)C(=O)N3
D. COc1cc2cc(c1OC)CN(C)CC(=O)N(C)CCN(C)CCNc1ncnc3c1/C(=C/N2)C(=O)N3
Query string: Order the records by IC50, with each subsequent value no larger than the one before. Returns: the labels listed in the requested order.
Result string: D, C, B, A
(D: 6030 nM, C: 3630 nM, B: 1050 nM, A: 457 nM)

I. COc1ccc2cc1OCCCCCC(=O)N1CCN(CC1)c1ncnc3c1/C(=C/N2)C(=O)N3
II. CN1CCNc2ncnc3c2/C(=C/Nc2ccc(Cl)c(c2)OCCN2C[C@H](O)C[C@@H]2C1=O)C(=O)N3
Query string: Identify the entry with the smaller IC50: I or II . Please indicate the selected item by its label.
Result string: II
(II: 457 nM, I: 891 nM)

I. CN1CCNc2ncnc3c2/C(=C/Nc2cccc(c2)OCCN2C[C@H](O)C[C@@H]2C1=O)C(=O)N3
II. COc1ccc2cc1CN(C)CCCCC(=O)N(C)CCNc1ncnc3c1/C(=C/N2)C(=O)N3
Query string: Compare the recorded IC50 of I and II ; state which is larger. Please indicate the selected item by its label.
Result string: I

###

- system: GSK3β (h) (Homo sapiens, UniProt P49841)
- Sequence (P49841 whole entry): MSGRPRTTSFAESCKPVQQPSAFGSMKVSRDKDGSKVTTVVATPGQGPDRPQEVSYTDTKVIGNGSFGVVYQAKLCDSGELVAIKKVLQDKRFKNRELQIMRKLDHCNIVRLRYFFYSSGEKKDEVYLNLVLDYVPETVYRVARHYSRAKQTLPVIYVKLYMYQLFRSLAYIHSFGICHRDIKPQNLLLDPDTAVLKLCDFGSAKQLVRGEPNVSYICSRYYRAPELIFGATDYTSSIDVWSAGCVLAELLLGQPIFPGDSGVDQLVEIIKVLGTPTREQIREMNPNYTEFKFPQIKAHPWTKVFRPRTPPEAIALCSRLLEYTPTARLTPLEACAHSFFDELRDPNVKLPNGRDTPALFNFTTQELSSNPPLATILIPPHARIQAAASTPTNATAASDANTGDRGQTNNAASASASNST
- run_description: GSK-3β human kinase assay (SPA)
- Type: biochemical
Catalogue of compounds with associated GSK3B pIC50
Please give only the number in your answer, with no unit.

Worked examples follow.
COc1ccc2cc1OCCCC(=O)NCCCNc1ncnc3c1C(=CN2)C(=O)N3 (mixture of isomers) | 7.56
COc1ccc2cc1OCCCC(=O)N(C1CCCCC1)CCCNc1ncnc3c1C(=CN2)C(=O)N3 (mixture of isomers) | 6.4
O=C1CCCOc2cccc(c2)NC=C2C(=O)Nc3ncnc(c32)NCCCN1 (mixture of isomers) | 7.7
CN1CCCNc2ncnc3c2C(=CNc2cccc(c2)OCCCC1=O)C(=O)N3 (mixture of isomers) | 7.4

Now consider a different compound.
Query string: Fill in the recorded GSK3B pIC50 for this compound, with GSK3β (h) (Homo sapiens, UniProt P49841) as test system: CN1CCCN(C)c2ncnc3c2C(=CNc2ccc(Cl)c(c2)OCCCC1=O)C(=O)N3 (mixture of isomers)
Result string: 6.42
